Please respond with reported Survival ratio for every item in the list.
- Species on record: Mus musculus
- Test method notes: Survival ratio (SR) is the number of mice surviving after 80 days among 8 mice
- Type: functional
The answer should be a number; do not append a unit.

Please look up its Survival ratio: CCCCCO/N=C/c1cc(OC)c2c(c1OC)C(=O)C=CC2=O
5

Entry to check: CCCCCCCCCCCCO/N=C/c1cc(OC)c2c(c1OC)C(=O)C=CC2=O
0

What about CCCCCCCCCO/N=C(\CCCCCC)c1cc(OC)c2c(c1OC)C(=O)C=CC2=O ?
0

Follow-up entry: CCCCCCCCCO/N=C/c1cc(OC)c2c(c1OC)C(=O)C=CC2=O
5

# repeat for CCCCCC/C(=N\OC)c1cc(OC)c2c(c1OC)C(=O)C=CC2=O
5

What do you have for CCCCCCCCCCCCO/N=C(\CCCCCC)c1cc(OC)c2c(c1OC)C(=O)C=CC2=O ?
2

Param item: CCCCCCCO/N=C(\CCCCCC)c1cc(OC)c2c(c1OC)C(=O)C=CC2=O
5

Another compound: CCCCCCCO/N=C/c1cc(OC)c2c(c1OC)C(=O)C=CC2=O
5

Follow-up entry: CCCCCC/C(=N\OCCC)c1cc(OC)c2c(c1OC)C(=O)C=CC2=O
5

Please give the result for CCCO/N=C/c1cc(OC)c2c(c1OC)C(=O)C=CC2=O too.
2

Follow-up item: CCCCCC/C(=N\OCCCCC)c1cc(OC)c2c(c1OC)C(=O)C=CC2=O
5

And for COc1cccc2c1C(=O)c1c(O)c3c(c(O)c1C2=O)C[C@@](O)(C(=O)CO)C[C@@H]3O[C@H]1C[C@H](N)[C@H](O)[C@H](C)O1 [DOXORUBICIN] ?
3

Also CO/N=C/c1cc(OC)c2c(c1OC)C(=O)C=CC2=O , if possible.
2

Input COc1cc(/C=N/OCc2ccccc2)c(OC)c2c1C(=O)C=CC2=O
4

----------
- Tested on: L1210
- Test method notes: The compound was evaluated for antiproliferative activity against L1210 cell line
- Type: functional
- Condition notes: Mus musculus, read-out: ED50 (the source's name)
Please provide measured EC50 for the entries that follow.
Provide the measurement as a number trailed by its unit.

Which EC50 reading was recorded for the compound CCCCCCCCCCCCO/N=C(\CCCCCC)c1cc(OC)c2c(c1OC)C(=O)C=CC2=O ?
0.193 µg/mL

Another compound to check: CCCCCC/C(=N\OCCCCC)c1cc(OC)c2c(c1OC)C(=O)C=CC2=O
0.224 µg/mL

CCCCCC/C(=N\OCCC)c1cc(OC)c2c(c1OC)C(=O)C=CC2=O , same question.
0.166 µg/mL

Try COc1cc(/C=N/OCc2ccccc2)c(OC)c2c1C(=O)C=CC2=O next.
0.264 µg/mL

Proceed to CCCCCC/C(=N\OC)c1cc(OC)c2c(c1OC)C(=O)C=CC2=O
0.192 µg/mL

CCCCCCCO/N=C/c1cc(OC)c2c(c1OC)C(=O)C=CC2=O , same question.
0.213 µg/mL

Repeat for the following compound: CCCCCCCCCO/N=C(\CCCCCC)c1cc(OC)c2c(c1OC)C(=O)C=CC2=O
1.15 µg/mL

Param item: CO/N=C/c1cc(OC)c2c(c1OC)C(=O)C=CC2=O
0.109 µg/mL

Let us now turn to CCCCCCCCCCCCO/N=C/c1cc(OC)c2c(c1OC)C(=O)C=CC2=O
0.311 µg/mL
